Molecular target: Rat recombinant TF (Rattus norvegicus, UniProt P42533)
Construct: purchased Cloud Clone Corp
Sequence (P42533 29-295): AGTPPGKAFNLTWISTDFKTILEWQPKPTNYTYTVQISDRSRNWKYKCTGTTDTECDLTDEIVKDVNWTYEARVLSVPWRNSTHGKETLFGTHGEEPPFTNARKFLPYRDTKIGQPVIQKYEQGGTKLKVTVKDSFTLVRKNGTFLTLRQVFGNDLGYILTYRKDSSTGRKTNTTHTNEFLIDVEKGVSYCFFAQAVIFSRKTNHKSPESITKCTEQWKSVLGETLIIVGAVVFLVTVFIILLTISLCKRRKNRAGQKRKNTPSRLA
Test: Plate-based in vitro binding assay of TF-targeting peptides to recombinant TF
Conditions: 450 nm; coated peptides incubated with 75 ng recombinant TF
measureName: absorbance (binding to recombinant TF)

Below: 2 substances and their reported absorbance (binding to recombinant TF).
substance | experimentalTarget | absorbance (binding to recombinant TF)
RTLAFVRFK | Rat recombinant TF (Rattus norvegicus, UniProt P42533) | 0.28
A2V2K2—C12 (KKAAVVK) [non-specific peptide, non-specific peptide, consisting of the filler peptide, selected as a non-targeted control] | Rat recombinant TF (Rattus norvegicus, UniProt P42533) | 0.2

[1] RLMTQDCLQQRSK
[2] EGRNCETHKDDQL
Looking only at measured absorbance (binding to recombinant TF), which entry is lower, 1 or 2 ? Record your answer as the label of the chosen record.
2
